experiment: Primary qHTS for delayed death inhibitors of the malarial parasite plastid, 96 hour incubation; details: P. falciparum luciferase reporter growth; series mostly up to 28.7 µM
The campaign covered roughly 320,000 compounds. About 22,000 (6.9%) were called active. Not shown: some 27% with an inconclusive outcome. The call rests on the fitted dose curve; in most records, active means well fitted inhibition curve with a large enough effect; inconclusive means small, poorly fitted or top-dose-only effect, or another doubt; inactive means no such curve, though single readings can be large or run the other way. The list comes from a sample in which actives are over-represented; it also holds close analogues and randomly drawn compounds.
Write down one outcome, taken from YES (active), NO (inactive)

# example entries with known answers
molecule: COc1ccc(NC(=O)CN2C(=O)COc3ccc(S(=O)(=O)N4CCOCC4)cc32)cc1
qualitative label: NO
//
molecule: CCOc1ccc(-c2nc(N)ncc2-c2ccccc2OC)c(O)c1
qualitative label: NO
//
molecule: COc1ccc(S(=O)(=O)NC(C)C(=O)NCc2ccncc2)cc1Cl (stereo unspecified)
qualitative label: NO
//
molecule: O=C(Nn1cnnc1)c1cc(Cl)ccc1Cl
qualitative label: NO
//
molecule: COc1ccc(C(=O)OCC(=O)c2ccc(Cl)s2)c(OC)c1OC
qualitative label: NO

Ask: How was COc1ccc(-c2[nH]ncc2CN(C)Cc2c(C)n[nH]c2C)c(OC)c1 classified in this test?
Reply: NO

Ask: Also C/C(Cc1ccccc1)=N\NC(=O)CNC(=O)c1ccccc1Cl ?
Reply: NO

Ask: Would you kindly repeat that for O=C(c1cccc(N2CCCC2=O)c1)N1CCOCC1 ?
Reply: YES

Ask: One more molecule: COc1ccc(-c2n[nH]c(C)c2-c2ccccc2OC)c(O)c1
Reply: YES

Ask: What about C=C(C)COc1ccc(-c2n[nH]c(C)c2-c2ccccc2OC)c(O)c1 ?
Reply: YES

Ask: CCOc1ccc(-c2n[nH]c(C)c2-c2ccccn2)c(O)c1 ?
Reply: NO

----------
assay: Primary qHTS for delayed death inhibitors of the malarial parasite plastid, 96 hour incubation; further: potency means the concentration at half of the fitted maximal effect; settings: P. falciparum luciferase reporter growth; series mostly up to 28.7 µM
Among all 320,000 compounds or so, about 22,000 (6.9%) were called active. Another 27% or so got no clear call; they are omitted. The entries come from a sample that favours actives as a whole.
measured parameter: Potency

molecule: CCCc1nc2c(c(=O)c3ccccc3n2C)c(=O)n1C1CCCCCC1
Potency: 14.7 µM (active)
--
molecule: Cn1c2ccccc2c2c(C(=O)N3CCN(c4ccc(F)cc4)CC3)cn(C3CCCC3)c(=O)c21
Potency: inactive
--
molecule: COc1ccc(Cc2nnc(SCC(=O)Nc3ccc(C)c(C)c3)o2)cc1OC
Potency: inactive
--
molecule: CCCc1nc2c(c(=O)c3ccccc3n2C)c(=O)n1-c1cc(C)cc(C)c1
Potency: 5.86 µM (active)
--
molecule: Cc1cc(-c2ccc(S(=O)(=O)N3CCN(c4cccc(C(F)(F)F)c4)CC3)s2)on1
Potency: 13.1 µM (active)
--
molecule: CCCc1nnc(SCC(=O)Nc2ccc(C(=O)OCC)cc2)o1
Potency: 0.147 µM (active)
--
molecule: CCOC(=O)c1c(NC(=O)CSc2nnc(CNc3ccc(C)cc3C)o2)sc(C)c1C
Potency: 8.28 µM (active)
--
molecule: CCCCNC(=O)CCn1c(=O)c2ccccc2n(Cc2cc(C)ccc2C)c1=O
Potency: inactive
--
molecule: COCC1CCN(C(=O)CCc2nnc(C3(c4ccc(Cl)cc4)CCC3)o2)C1 (stereo unspecified)
Potency: inactive
--
molecule: O=C(Nc1cccn(Cc2ccccc2Cl)c1=O)NC1CCCCC1
Potency: inactive

# next molecule below
Ask: State the recorded Potency for this entry: O=S1(=O)CCN(Cc2ccccc2Cl)CC1
Reply: inactive
